Numbers sourced from ChEMBL document CHEMBL1961873.

# key: entry, value: inhibition
- tested_system: Sphingosine kinase 1 (Homo sapiens) (UniProt Q9NYA1);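 further: mean percent inhibition of SPHK1 activity, measured within the GSK PKIS screening panel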
- Sequence (Q9NYA1 whole entry): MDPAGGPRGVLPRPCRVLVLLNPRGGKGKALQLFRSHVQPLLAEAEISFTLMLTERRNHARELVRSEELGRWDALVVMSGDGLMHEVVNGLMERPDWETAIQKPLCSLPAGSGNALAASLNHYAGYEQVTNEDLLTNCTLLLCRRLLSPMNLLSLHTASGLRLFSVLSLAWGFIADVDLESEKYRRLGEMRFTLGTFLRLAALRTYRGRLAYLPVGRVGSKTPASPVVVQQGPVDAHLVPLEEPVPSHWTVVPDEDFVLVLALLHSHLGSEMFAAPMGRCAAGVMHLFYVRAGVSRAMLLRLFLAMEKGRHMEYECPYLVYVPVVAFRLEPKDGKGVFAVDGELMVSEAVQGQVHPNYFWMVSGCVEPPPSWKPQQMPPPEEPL
- conditions_used: at 0.1 µM

{"smiles_repr": "COc1ccc(-c2ccc3c(NC(=O)C4CC4)n[nH]c3n2)cc1", "inhibition, %": 0.68}
{"smiles_repr": "C#Cc1cccc(Nc2ncnc3ccc(OCCCCNCCS(C)(=O)=O)cc23)c1", "inhibition, %": 5.65}
{"smiles_repr": "CN1CCN(CCCNc2nc3ccc(Oc4ccc(NC(=O)Nc5cc(C(F)(F)F)ccc5F)cc4)cc3[nH]2)CC1", "inhibition, %": -1.28}
{"smiles_repr": "CS(=O)(=O)CCNCc1ccc(-c2ccc3ncnc(Nc4ccc(OCc5ccccc5)c(Br)c4)c3c2)o1", "inhibition, %": -0.92}
{"smiles_repr": "COc1cc(Nc2ncc(-c3ccccc3)o2)cc(OC)c1OC", "inhibition, %": 1.38}
{"smiles_repr": "CCS(=O)(=O)c1ccc(OC)c(Nc2ncc(-c3cccc(-c4ccccc4F)c3)o2)c1", "inhibition, %": 4.17}
{"smiles_repr": "Cc1ccc(C(=O)NC(C)C)cc1-c1ccc(C(=O)NCC2CC2)cc1", "inhibition, %": -0.6}
{"smiles_repr": "COc1cccc(/C=N/Nc2ncnc3c2cnn3-c2cccc(OC)c2)c1", "inhibition, %": 2.07}
{"smiles_repr": "COc1cc(N2CCN(C(C)C)CC2)ccc1Nc1nc(Nc2ccc(F)cc2C(=O)NC[C@@H](O)CO)c2cc[nH]c2n1", "inhibition, %": 1.31}

----------
- tested_system: MAP kinase-interacting serine/threonine-protein kinase 1 (Homo sapiens);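 further: each value is an averaged percent inhibition of MKNK1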
- conditions_used: at 1 µM
Would you mind labelling by inhibition? At or over 3% is label 1, under is label 0.

{"smiles_repr": "CS(=O)(=O)CCNCc1ccc(-c2ccc3ncnc(Nc4ccc(OCc5ccccc5)c(Br)c4)c3c2)o1", "class": "label 1"}
{"smiles_repr": "CCc1cccc(CC)c1/C=C/c1cncc(C(=O)NC)c1", "class": "label 1"}
{"smiles_repr": "COc1ccc(C2=C(N3CCc4ccccc43)C(=O)NC2=O)cc1", "class": "label 1"}
{"smiles_repr": "COc1ccc(-c2ccc3c(NC(=O)C4CC4)n[nH]c3n2)cc1", "class": "label 1"}
{"smiles_repr": "O=C(NCC1CC1)c1ccc(-c2cccc(C(=O)NC3CC3)c2)cc1", "class": "label 0"}
{"smiles_repr": "c1ccc(-c2n[nH]cc2-c2ccnc(-c3ccc(OCCN4CCOCC4)cc3)c2)nc1", "class": "label 0"}
{"smiles_repr": "FC(F)(F)c1cccc(Nc2nccc(-c3cnn4nc(-c5ccccc5)ccc34)n2)c1", "class": "label 0"}
{"smiles_repr": "Fc1ccc(-c2ncn(C3CCNCC3)c2-c2ccnc(Oc3ccc(Oc4ccccc4)cc3)n2)cc1", "class": "label 0"}

----------
- tested_system: Serine/threonine-protein kinase Nek9 (Homo sapiens);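 further: reported value is the mean percent inhibition of NEK9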
- conditions_used: at 0.1 µM

{"smiles_repr": "Cc1nnc(-c2ccc(C)c(-c3ccc(C(=O)NCc4ccc(Cl)cc4)cc3)c2)o1", "inhibition [%]": 6.68}
{"smiles_repr": "COc1cc(Nc2ncc3c(C)nc(-c4cccc(Oc5ccccc5)c4)n3n2)cc(OC)c1OC", "inhibition [%]": 29}
{"smiles_repr": "C[C@@H](Oc1cc(-n2cnc3ccc(OCC4CCN(C)CC4)cc32)sc1C(N)=O)c1ccccc1Cl", "inhibition [%]": 77.4}
{"smiles_repr": "CCS(=O)(=O)c1ccc(OC)c(Nc2ncc(-c3cccc(-c4ccccc4F)c3)o2)c1", "inhibition [%]": -0.87}
{"smiles_repr": "Cc1ccc(NC(=O)c2ccoc2)cc1-c1ccc(C(=O)NCC2CC2)cc1", "inhibition [%]": 5.95}
{"smiles_repr": "CS(=O)(=O)CCNCc1ccc(-c2ccc3ncnc(Nc4ccc(OCc5ccccc5)c(Br)c4)c3c2)o1", "inhibition [%]": 6.05}
{"smiles_repr": "COc1cc(Nc2ncc(-c3ccccc3)o2)cc(OC)c1OC", "inhibition [%]": 5.06}
{"smiles_repr": "CCN(CC)Cc1ccc(Nc2nccc(-c3cnn4ncccc34)n2)cc1", "inhibition [%]": 6.44}
{"smiles_repr": "O=C(Nc1n[nH]c2cc(-c3ccccc3)ccc12)C1CC1", "inhibition [%]": 4.27}
{"smiles_repr": "COc1ccc2ncn(-c3cc(O[C@H](C)c4ccccc4Cl)c(C(N)=O)s3)c2c1", "inhibition [%]": 31.8}
{"smiles_repr": "CN(C)CCOc1ccc(-c2cc(-c3ccc4c(c3)CCC4=NO)c(-c3ccncc3)o2)cc1", "inhibition [%]": -0.48}
